experiment: In vivo plasma or tumor pharmacokinetics of Compound 25 (Table 4); parameters: species or system CD-1 mice (nude mice where noted); settings: CD-1, mouse, plasma, ip, 50 mg/kg, 50 mg/kg i.p., Saline, CD-1 mice
measure: Tmax
Answer as a quantity: numeral, then unit.

Task: Please report the recorded Tmax for Cn1c(COP(=O)(NCCBr)NCCBr)cnc1[N+](=O)[O-] [Compound 25] .
Output: 5 min

---

target: UniProt:P11712; assay: Cytochrome P450 inhibition; conditions: pH 7.4
Sequence (P11712 whole entry): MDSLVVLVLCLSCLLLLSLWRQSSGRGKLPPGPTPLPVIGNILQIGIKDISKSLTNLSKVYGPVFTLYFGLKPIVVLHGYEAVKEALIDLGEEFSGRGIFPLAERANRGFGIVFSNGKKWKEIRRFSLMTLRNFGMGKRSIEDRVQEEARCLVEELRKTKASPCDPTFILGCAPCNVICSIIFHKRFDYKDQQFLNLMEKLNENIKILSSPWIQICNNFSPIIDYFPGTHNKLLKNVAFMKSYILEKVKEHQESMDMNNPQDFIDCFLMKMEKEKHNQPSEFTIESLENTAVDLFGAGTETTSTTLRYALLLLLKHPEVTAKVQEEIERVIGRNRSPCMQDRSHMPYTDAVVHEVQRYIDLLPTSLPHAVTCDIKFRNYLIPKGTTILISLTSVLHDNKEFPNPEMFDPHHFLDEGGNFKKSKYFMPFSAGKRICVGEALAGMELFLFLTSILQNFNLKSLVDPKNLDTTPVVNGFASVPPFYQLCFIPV
measure: IC50

Task: Please report the recorded IC50 for "Cn1c(COP(=O)(NCCBr)NCCBr)cnc1[N+](=O)[O-]" .
Output: ~10 µM

---

experiment: In vivo plasma or tumor pharmacokinetics of Compound 25 (Table 4); design: species or system CD-1 mice (nude mice where noted); conditions: CD-1, mouse, plasma, ip, 25 mg/kg, 25 mg/kg i.p., 10% PEG, CD-1 mice
measure: Cmax (ng/mL)
Give just the numeric value; ng/mL need not be written.

Task: Please report the recorded Cmax for "Cn1c(COP(=O)(NCCBr)NCCBr)cnc1[N+](=O)[O-]" .
Output: 6330

---

system: HT29 cells; experiment: Antiproliferation assay (Alamar Blue), anoxia vs air; settings: Homo sapiens, HT-29, 2 h, read-out: IC50 HT29 Air
measure: IC50

O=[N+]([O-])c1ccc(COP(=O)(NCCBr)NCCBr)s1 [Compound 34] ... 57 µM
Cn1c(COP(=O)(NCCBr)NCCBr)cnc1[N+](=O)[O-] [Compound 25] ... > 100 µM
Cn1c(COP(=O)(N(CCCl)CCCl)N(CCCl)CCCl)cnc1[N+](=O)[O-] [Compound 6] ... > 100 µM
Cn1c(COP(=O)(NCCCl)NCCCl)cnc1[N+](=O)[O-] [Compound 36] ... > 100 µM

Consider now this further compound.
Task: // lookup IC50 | system=HT29 cells | key= CN(CCCl)P(=O)(OCc1cnc([N+](=O)[O-])n1C)N(C)CCCl [Compound 5]
Output: > 100 µM

---

test system: NCI-H460 cells; assay: Antiproliferation assay - oxygen dependence; format: cell-based, human; conditions: Homo sapiens, NCI-H460, read-out: IC50 in H460 cells, 0.3% O2
# if measured IC50 < 1000 nM: class 1  # else: class 0

Known results for compounds:
Cn1c(COP(N)(=O)N(CCCl)CCCl)cnc1[N+](=O)[O-] (centres unmarked) [Compound 1] ... class 0
Cn1c(COP(=O)(NCCBr)NCCBr)cnc1[N+](=O)[O-] [Compound 25] ... class 0
CC(OP(=O)(NCCBr)NCCBr)c1ccc([N+](=O)[O-])s1 (centres unmarked) [Compound 88] ... class 1

Moving on to the next compound.
Task: Just wondering, is IC50 of Cn1c(COP2(=O)N(CCBr)CCCN2CCBr)cnc1[N+](=O)[O-] [Compound 35] below 1000 nM?
Output: class 0

---

test: In vivo plasma or tumor pharmacokinetics of Compound 25 (Table 4); design: species or system CD-1 mice (nude mice where noted); details: CD-1, mouse, plasma, po, 100 mg/kg, 100 mg/kg p.o., Saline, CD-1 mice; read-out: AUC
measure: AUC
Answer as a quantity: numeral, then unit.

Task: Please report the recorded AUC for Cn1c(COP(=O)(NCCBr)NCCBr)cnc1[N+](=O)[O-] [Compound 25] .
Output: 784 µg·h/mL

---

experiment: In vivo plasma or tumor pharmacokinetics of Compound 25 (Table 4); design: species or system CD-1 mice (nude mice where noted); details: nude, mouse, tumor, ip, 150 mg/kg, 150 mg/kg i.p., Saline, nude mice with H460 tumor, Tumor PK; read-out: AUC
measure: AUC (µg·h/mL)
Give just the numeric value; µg·h/mL need not be written.

Task: Please report the recorded AUC for "Cn1c(COP(=O)(NCCBr)NCCBr)cnc1[N+](=O)[O-]" .
Output: 307

---

molecular target: CYP2C19 (printed CYPC219) (Homo sapiens, UniProt P33261); assay: Cytochrome P450 inhibition; settings: pH 7.4, probe (S)-mephenyloin
Sequence (P33261 whole entry): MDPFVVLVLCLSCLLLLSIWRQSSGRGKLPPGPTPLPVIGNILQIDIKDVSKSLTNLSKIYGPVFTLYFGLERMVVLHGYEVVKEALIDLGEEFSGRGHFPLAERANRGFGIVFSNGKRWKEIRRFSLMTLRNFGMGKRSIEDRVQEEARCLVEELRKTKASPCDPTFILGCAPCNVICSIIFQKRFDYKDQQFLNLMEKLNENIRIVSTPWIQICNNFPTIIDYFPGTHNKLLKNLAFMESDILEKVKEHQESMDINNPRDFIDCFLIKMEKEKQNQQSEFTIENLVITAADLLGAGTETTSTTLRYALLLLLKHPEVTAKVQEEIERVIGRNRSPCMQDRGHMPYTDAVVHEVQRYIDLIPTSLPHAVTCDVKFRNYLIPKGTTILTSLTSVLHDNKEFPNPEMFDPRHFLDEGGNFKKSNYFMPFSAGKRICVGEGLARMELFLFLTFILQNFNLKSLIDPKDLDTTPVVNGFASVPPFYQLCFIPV
measure: IC50

Task: Please report the recorded IC50 for "Cn1c(COP(=O)(NCCBr)NCCBr)cnc1[N+](=O)[O-]" .
Output: > 50 µM

---

test: In vivo plasma or tumor pharmacokinetics of Compound 25 (Table 4); set-up: species or system CD-1 mice (nude mice where noted); settings: CD-1, mouse, plasma, po, 100 mg/kg, 100 mg/kg p.o., Saline, CD-1 mice
measure: Tmax (min)
Give just the numeric value; min need not be written.

Task: Please report the recorded Tmax for "Cn1c(COP(=O)(NCCBr)NCCBr)cnc1[N+](=O)[O-]" .
Output: 15

---

test system: MES-SA/Dx5 cells; assay: Antiproliferation assay (Alamar Blue), anoxia vs air; conditions: Homo sapiens, MES-SA/Dx5, 2 h, read-out: IC50 MES-SA/Dx5 Anoxia
# Lookup of reported pIC50 keyed by entry
In simple prose, pIC50 is minus the logarithm base ten of a concentration in moles per litre.

Example entries begin here.
O=[N+]([O-])c1ccc(COP(=O)(NCCBr)NCCBr)o1 ... 7.00
Cn1c(COP(N)(=O)N(CCCl)CCCl)cnc1[N+](=O)[O-] (stereo not drawn) ... 6.00
Cn1c(COP(=O)(NCCCl)NCCCl)cnc1[N+](=O)[O-] ... 5.12
Cn1c(COP(=O)(N(CCCl)CCCl)N(CCCl)CCCl)cnc1[N+](=O)[O-] ... 5.30
Cn1c(COP(=O)(NCCBr)NCCBr)cnc1[N+](=O)[O-] ... 6.52

Consider now this further compound.
Task: Please report the recorded pIC50 for "Cn1c(COP(=O)(N(CCCl)C2CC2)N(CCCl)C2CC2)cnc1[N+](=O)[O-]" .
Output: 6.23

---

# Lookup of reported IC50 keyed by entry
test system: NCI-H460 cells; experiment: Antiproliferation assay (Alamar Blue), anoxia vs air; details: Homo sapiens, NCI-H460, 2 h, read-out: IC50 H460 Air
Give just the numeric value; µM need not be written.

O=[N+]([O-])c1ccc(COP(=O)(NCCOS(=O)(=O)c2ccc(Cl)cc2)NCCOS(=O)(=O)c2ccc(Cl)cc2)o1 ... 2.8

Consider now this further compound.
Task: Please report the recorded IC50 for "O=[N+]([O-])c1ccc(COP(=O)(NCCOS(=O)(=O)c2ccccc2)NCCOS(=O)(=O)c2ccccc2)o1" .
Output: 3.5

---

test: in vivo; details: CD-1, mouse, ip, 50 mg/kg
# Lookup of reported AUC keyed by entry
Give just the numeric value; µg·h/mL need not be written.

Example entries begin here.
Cn1c(COP(=O)(NCCCl)NCCCl)cnc1[N+](=O)[O-] ... 1440
O=[N+]([O-])c1ccc(COP(=O)(NCCBr)NCCBr)o1 ... 64

Consider now this further compound.
Task: Please report the recorded AUC for "CN(CCCl)P(=O)(OCc1cnc([N+](=O)[O-])n1C)N(C)CCCl" .
Output: 57.4

---

# Lookup of reported clearance keyed by entry
test: in vivo; details: CD-1 (Compounds 5, 23, 36), Balb/c (Compound 1), mouse, iv
Answer as a quantity: numeral, then unit.

Cn1c(COP(=O)(NCCCl)NCCCl)cnc1[N+](=O)[O-] ... 77.4 mL/min/kg

Task: Please report the recorded clearance for "CN(CCCl)P(=O)(OCc1cnc([N+](=O)[O-])n1C)N(C)CCCl" .
Output: 185 mL/min/kg

---

system: HT29 cells; assay: Antiproliferation assay - oxygen dependence; type: cell-based; conditions: Homo sapiens, HT-29, read-out: IC50 in HT29 cells, 0.6% O2
measure: IC50 (µM)
Give just the numeric value; µM need not be written.

Task: Please report the recorded IC50 for "Cn1c(COP(=O)(NCCBr)NCCBr)cnc1[N+](=O)[O-]" .
Output: 25

---

assay: in vivo; settings: Balb/c, mouse, iv, 50 mg/kg
measure: Tmax
Answer as a quantity: numeral, then unit.

Task: Please report the recorded Tmax for Cn1c(COP(N)(=O)N(CCCl)CCCl)cnc1[N+](=O)[O-] (stereo not shown) .
Output: 5 min

---

# Lookup of reported Cmax keyed by entry
assay: in vivo; conditions: CD-1, mouse, iv, 50 mg/kg
Give just the numeric value; ng/mL need not be written.

CN(CCCl)P(=O)(OCc1cnc([N+](=O)[O-])n1C)N(C)CCCl [Compound 5] ... 16900
O=[N+]([O-])c1ccc(COP(=O)(NCCCl)NCCCl)o1 [Compound 23] ... 7800

Consider now this further compound.
Task: Please report the recorded Cmax for Cn1c(COP(=O)(NCCCl)NCCCl)cnc1[N+](=O)[O-] [Compound 36] .
Output: 27700

---

assay: In vivo plasma or tumor pharmacokinetics of Compound 25 (Table 4); parameters: species or system CD-1 mice (nude mice where noted); settings: CD-1, mouse, plasma, ip, 50 mg/kg, 50 mg/kg i.p., 30% PEG/70% Saline, CD-1 mice; read-out: Half-life
measure: half-life (min)
Give just the numeric value; min need not be written.

Task: Please report the recorded half-life for "Cn1c(COP(=O)(NCCBr)NCCBr)cnc1[N+](=O)[O-]" .
Output: 11

Cited source for all entries: patent US8507464B2
